# ASSAY COMMENT: Pharmacokinetics of Ewha-18278 after IV and oral administration to rats (non-compartmental analysis, HPLC/UV plasma assay)
# Assay type: in vivo, Sprague-Dawley rats
# EXPERIMENTAL CONTEXT: male, Sprague-Dawley, rat, plasma, po, 20 mg/kg, PO 20 mg/kg, diazepam injection-based formulation (2 mg/mL)
# Method: The plasma sample (50 µL) with IS was deproteinized with twice the volume of acetonitrile (ACN). All HPLC analyses were performed on an Agilent 1100 series system (Palo Alto, CA, USA). Capcell-pak C18 MG120 column (3.0 mm × 250 mm, 5 µm, Shiseido, Tokyo, Japan) was the analytical column used. […] The rats were divided into five groups on the day of the drug administration. […] Plasma samples mixed with IS (Ewha-18212) were analyzed by the HPLC system.
QUANTITY KIND: Tmax (min)
Your answer is read as min, so omit the unit and give the number.

Recorded result, CCCc1c(-c2ccccc2)nn(-c2ccccn2)c1O , Tmax: 4.98
